Where do these numbers come from? They come from ChEMBL document CHEMBL3585241.

Items are presented alongside their recorded inhibition at 10 µM.
System: HUVEC
Experiment: Cytotoxicity against HUVEC assessed as inhibition of cell proliferation rate at 10 uM after 72 hrs by MTT assay relative to control
Assay type: functional
Settings: Homo sapiens
Write the value in % as a bare number.

1) c1ccc2cc3[nH]c(-c4cscn4)nc3cc2c1 | 2
2) Clc1ccc2[nH]c(-c3cscn3)nc2c1 | 7
3) c1ccc(Cn2c(-c3ccccc3)nc3ccccc32)cc1 | 7
4) Cc1cc2nc(-c3cscn3)[nH]c2cc1C | 0
5) c1ccc2[nH]cnc2c1 | 0
6) c1cc2[nH]c(-c3cscn3)nc2cn1 | 8

From here, focus on the item given below.
Prompt: Would you mind telling me what inhibition at 10 µM value was observed for Cc1ccc2nc(-c3ccccn3)[nH]c2c1 ?
Completion: 7

----------
Test system: A549
Experiment: Cytotoxicity against human A549 cells assessed as inhibition of cell proliferation rate after 72 hrs by MTT assay
Format: functional, cell-based
Details: A549, 72 h
pIC50: −log10 of the molar value.
Observation Type: pIC50

Prompt: Would you mind telling me what pIC50 value was observed for c1ccc2[nH]cnc2c1 [BENZIMIDAZOLE] ?
Completion: < 4.00
